tested on: ATGL; experiment: Western blot of ATGL level in HepG2 cells; assay type: cell-based; conditions: western blot, 24 hours, 10 μM screening or 50 nM-5 μM dose dependent
readoutName: ATGL level in HepG2 cells

compound: COCCn1cnc2ccc(NC(=O)Nc3cccc(C(C)O)c3)cc2c1=O (centres unmarked)
readoutName: ATGL level in HepG2 cells
measValue: increased ATGL level

compound: COCCn1c(C2CCCCC2)nc2ccc(NC(=O)Nc3cccc(C(C)=O)c3)cc2c1=O
readoutName: ATGL level in HepG2 cells
measValue: increased ATGL level

---

test: Plasma stability assay; assay type: in vitro ADME, human; conditions: human plasma, after 2 hours, with respect to Propantheline
readoutName: Plasma stability

structureSmiles: COCCn1c(-c2cccnc2)nc2ccc(NC(=O)Nc3cccc(C(C)=O)c3)cc2c1=O
measValue: good plasma stability
--
structureSmiles: COCCn1c(CN2CCCCC2)nc2ccc(NC(=O)Nc3cccc(C(C)=O)c3)cc2c1=O
measValue: good plasma stability
